test system: 769-P (Kidney Carcinoma); assay: Bliss excess, mean over the matrix (fraction); higher = more synergy

| MOLECULE | Bliss excess |
| --- | --- |
| CN(CCO)CC[C@H](CSc1ccccc1)Nc1ccc(S(=O)(=O)NC(=O)c2ccc(N3CCC([C@@H](O)c4ccccc4-c4ccc(Cl)cc4)CC3)cc2)cc1S(=O)(=O)C(F)(F)F [AZD4320] + Cc1cc2ncnn2cc1Nc1ncc2c(n1)n(C1CCOCC1)c(=O)n2C [AZD7648] (first compound max 1 µM, 7x7, partner max 10 µM) | -0.0572 |
| COc1nnc2ccc(N3CCC(c4ccc(OCCN5CCN(C)C(=O)[C@H]5C)cc4)CC3)nn12 [AZD5153] + Cn1cnc2c(F)c(Nc3ccc(Br)cc3Cl)c(C(=O)NOCCO)cc21 [Selumetinib] (first compound max 1 µM, 7x7, partner max 10 µM) | -0.0261 |
| CCN(CCO)CCCOc1ccc2c(Nc3cc(CC(=O)Nc4cccc(F)c4)[nH]n3)ncnc2c1 [AZD2811] + O=C(c1cc(Cc2n[nH]c(=O)c3ccccc23)ccc1F)N1CCN(C(=O)C2CC2)CC1 [Olaparib] (first compound max 1 µM, 7x7, partner max 10 µM) | -0.018 |

* * *

tested on: A101D (Melanoma); experiment: Bliss excess, mean over the matrix (fraction); higher = more synergy

| COMPOUND | Bliss excess |
| --- | --- |
| NC1(C(=O)N[C@@H](CCO)c2ccc(Cl)cc2)CCN(c2ncnc3[nH]ccc23)CC1 [Capivasertib] + C[C@@H]1COCCN1C2=NC(=NC(=C2)C3(CC3)[S@](=N)(=O)C)C4=C5C=CNC5=NC=C4 [AZD6738] (first compound max 10 µM, 7x7, partner max 10 µM) | -0.107 |
| CC1(C)CCC(CN2CCN(c3ccc(C(=O)NS(=O)(=O)c4ccc(NCC5CCOCC5)c([N+](=O)[O-])c4)c(Oc4cnc5[nH]ccc5c4)c3)CC2)=C(c2ccc(Cl)cc2)C1 [Venetoclax] + CN(C)CCCOc1ccc(-c2ccc3ncc4c(c3c2)n(C2CCOCC2)c(=O)n4C)cn1 [AZD0156] (first compound max 1 µM, 7x7, partner max 1 µM) | 0.0088 |
| CC1(C)CCC(CN2CCN(c3ccc(C(=O)NS(=O)(=O)c4ccc(NCC5CCOCC5)c([N+](=O)[O-])c4)c(Oc4cnc5[nH]ccc5c4)c3)CC2)=C(c2ccc(Cl)cc2)C1 [Venetoclax] + COc1cc(Nc2ncc3c(n2)-c2ccc(Cl)cc2C(c2c(F)cccc2OC)=NC3)ccc1C(=O)O [Alisertib] (first compound max 1 µM, 7x7, partner max 10 µM) | 0.077 |

* * *

system: KP-N-YN (Neuroblastoma); experiment: Bliss excess, mean over the matrix (fraction); higher = more synergy
Bliss excess by entry:

| MOLECULE | MEASURED_ON | Bliss excess |
| --- | --- | --- |
| COc1nnc2ccc(N3CCC(c4ccc(OCCN5CCN(C)C(=O)[C@H]5C)cc4)CC3)nn12 [AZD5153] + Cn1cnc2c(F)c(Nc3ccc(Br)cc3Cl)c(C(=O)NOCCO)cc21 [Selumetinib] (first compound max 1 µM, 7x7, partner max 10 µM) | KP-N-YN (Neuroblastoma) | -0.0967 |
| Cc1cc2ncnn2cc1Nc1ncc2c(n1)n(C1CCOCC1)c(=O)n2C [AZD7648] + C[C@@H]1COCCN1C2=NC(=NC(=C2)C3(CC3)[S@](=N)(=O)C)C4=C5C=CNC5=NC=C4 [AZD6738] (first compound max 10 µM, 7x7, partner max 10 µM) | KP-N-YN (Neuroblastoma) | -0.0083 |

* * *

test system: NCI-H1703 (Squamous Cell Lung Carcinoma); experiment: combination Emax (second highest fraction inhibited in the dose matrix, 72 h); higher = more inhibition; extreme values may be limits of the assay

| MOLECULE | MEASURED_ON | combination Emax |
| --- | --- | --- |
| Cc1nc(-c2cn3c(n2)-c2ccc(-c4cnn(C(C)(C)C(N)=O)c4)cc2OCC3)n(C(C)C)n1 [Taselisib] + O=C(Nc1ccc2[nH]nc(-c3ccncc3)c2c1)[C@@H]1CCN(CC(=O)N2CCN(c3ccc(-c4ncccn4)cc3)CC2)C1 [SCH772984] (first compound max 10 µM, 7x7, partner max 5 µM) | NCI-H1703 (Squamous Cell Lung Carcinoma) | 0.722 |
| CCN(CCO)CCCOc1ccc2c(Nc3cc(CC(=O)Nc4cccc(F)c4)[nH]n3)ncnc2c1 [AZD2811] + C=CCn1c(=O)c2cnc(Nc3ccc(N4CCN(C)CC4)cc3)nc2n1-c1cccc(C(C)(C)O)n1 [AZD1775] (first compound max 1 µM, partner max 1 µM) | NCI-H1703 (Squamous Cell Lung Carcinoma) | 0.94 |
| COc1cccc(OCCCN)c1-c1cc(Nc2cnc(C#N)cn2)n[nH]1 [Prexasertib] + Cc1cc2ncnn2cc1Nc1ncc2c(n1)n(C1CCOCC1)c(=O)n2C [AZD7648] (first compound max 1 µM, 7x7, partner max 10 µM) | NCI-H1703 (Squamous Cell Lung Carcinoma) | 0.951 |
| NC1(C(=O)N[C@@H](CCO)c2ccc(Cl)cc2)CCN(c2ncnc3[nH]ccc23)CC1 [Capivasertib] + COc1nnc2ccc(N3CCC(c4ccc(OCCN5CCN(C)C(=O)[C@H]5C)cc4)CC3)nn12 [AZD5153] (first compound max 10 µM, 7x7, partner max 1 µM) | NCI-H1703 (Squamous Cell Lung Carcinoma) | 0.733 |

* * *

test system: CGTH-W-1 (Thyroid Gland Carcinoma); assay: Bliss excess, mean over the matrix (fraction); higher = more synergy

| MOLECULE | Bliss excess |
| --- | --- |
| NC1(C(=O)N[C@@H](CCO)c2ccc(Cl)cc2)CCN(c2ncnc3[nH]ccc23)CC1 [Capivasertib] + COc1nnc2ccc(N3CCC(c4ccc(OCCN5CCN(C)C(=O)[C@H]5C)cc4)CC3)nn12 [AZD5153] (first compound max 10 µM, 7x7, partner max 1 µM) | 0.0068 |
| CCc1c2c(nc3ccc(O)cc13)-c1cc3c(c(=O)n1C2)COC(=O)[C@]3(O)CC [SN-38] + CN(C)CCCOc1ccc(-c2ccc3ncc4c(c3c2)n(C2CCOCC2)c(=O)n4C)cn1 [AZD0156] (first compound max 0.3 µM, 7x7, partner max 1 µM) | -0.0056 |
| NC1(C(=O)N[C@@H](CCO)c2ccc(Cl)cc2)CCN(c2ncnc3[nH]ccc23)CC1 [Capivasertib] + Cn1cnc2c(F)c(Nc3ccc(Br)cc3Cl)c(C(=O)NOCCO)cc21 [Selumetinib] (first compound max 10 µM, 7x7, partner max 10 µM) | 0.0262 |
| C=CCn1c(=O)c2cnc(Nc3ccc(N4CCN(C)CC4)cc3)nc2n1-c1cccc(C(C)(C)O)n1 [AZD1775] + C1CN(CCC1(C(=O)N[C@@H](CCO)C2=CC=C(C=C2)Cl)N)C3=NC=NC4=C3C=CN4 [Capivasertib] (first compound max 3 µM, partner max 3 µM) | -0.0278 |
| COc1cccc(OCCCN)c1-c1cc(Nc2cnc(C#N)cn2)n[nH]1 [Prexasertib] + CN(C)CCCOc1ccc(-c2ccc3ncc4c(c3c2)n(C2CCOCC2)c(=O)n4C)cn1 [AZD0156] (first compound max 1 µM, 7x7, partner max 1 µM) | -0.0614 |
| NC1(C(=O)N[C@@H](CCO)c2ccc(Cl)cc2)CCN(c2ncnc3[nH]ccc23)CC1 [Capivasertib] + C[C@@H]1COCCN1C2=NC(=NC(=C2)C3(CC3)[S@](=N)(=O)C)C4=C5C=CNC5=NC=C4 [AZD6738] (first compound max 10 µM, 7x7, partner max 10 µM) | -0.0508 |
| COc1cc2ncnc(Nc3ccc(F)c(Cl)c3)c2cc1OCCCN1CCOCC1 [Gefitinib] + CC(C)n1c(=O)n(C)c2cnc3cc(F)c(-c4ccc(OCCCN5CCCCC5)nc4)cc3c21 [AZD1390] (first compound max 10 µM, 7x7, partner max 0.3 µM) | -0.0417 |

* * *

Quick list: Bliss excess per entry.
tested on: LS-411N (Colorectal Carcinoma); assay: Bliss excess, mean over the matrix (fraction); higher = more synergy

| COMPOUND | Bliss excess |
| --- | --- |
| CC1(C)CCC(CN2CCN(c3ccc(C(=O)NS(=O)(=O)c4ccc(NCC5CCOCC5)c([N+](=O)[O-])c4)c(Oc4cnc5[nH]ccc5c4)c3)CC2)=C(c2ccc(Cl)cc2)C1 [Venetoclax] + C=CCn1c(=O)c2cnc(Nc3ccc(N4CCN(C)CC4)cc3)nc2n1-c1cccc(C(C)(C)O)n1 [AZD1775] (first compound max 1 µM, partner max 1 µM) | -0.0856 |
| COc1cccc2c1C(=O)c1c(O)c3c(c(O)c1C2=O)C[C@@](O)(C(=O)CO)C[C@@H]3O[C@H]1C[C@H](N)[C@H](O)[C@H](C)O1 [Doxorubicin] + Cc1cc2ncnn2cc1Nc1ncc2c(n1)n(C1CCOCC1)c(=O)n2C [AZD7648] (first compound max 1 µM, 7x7, partner max 10 µM) | 0.0365 |
| Cc1c2c(nn1C)CSCc1cc(n(C)n1)CSc1cc(c3ccccc3c1)OCCCc1c(C(=O)O)n(C)c3c-2c(Cl)ccc13 [AZD5991] + C[C@@H](Nc1cc(F)cc(F)c1)c1cc(C(=O)N(C)C)cc2c(=O)cc(N3CCOCC3)oc12 [AZD8186] (first compound max 1 µM, 7x7, partner max 3 µM) | 0.0064 |
